Values were extracted from PubChem BioAssay (NCI).

# Test system: A549/ATCC NSCLC
# experimental protocol: NCI-60 one-dose screen, 48 h (100 = growth as untreated, 0 = no growth, -100 = all killed)
# setup conditions: 10 µM unless noted
About 83,000 compounds went through this panel and 20% of them were active in at least one assay; those are over-represented in the sample as a whole.
metric: growth (%)
Form entry: value (%) — number only.

See these solved cases before continuing.
compound	target	unit	growth
CN(C)CC(C(=O)Cc1ccccc1)c1ccccc1 (configuration not stated)	A549/ATCC NSCLC	%	97.5
COC(=O)[C@@H](C)C[C@H](Cc1ccccc1)NC(=O)c1cccc([C@@H](C[C@H](C(C)C)N(C)C(=O)[C@@H](NC(=O)[C@H]2CCCCN2C)C(C)C)OC(C)=O)n1	A549/ATCC NSCLC	%	14.2
COc1cc(NCCCN=C(N)N)c2ncccc2c1	A549/ATCC NSCLC	%	84.8
CCC1(C)CC(CCNCc2ccccc2O)(c2ccc(C)cc2)CCO1 (configuration not stated)	A549/ATCC NSCLC	%	101

Q: Form entry - test system: A549/ATCC NSCLC; read-out: growth; compound: Cc1ccc(C(=O)NCCCOc2ccc(N)cc2Cl)cc1S(=O)(=O)F
A: 90.1

Q: Form entry - test system: A549/ATCC NSCLC; read-out: growth; compound: CC1(C)N=C(N)N=C(N)N1c1ccc(OCCCNC(=O)Nc2ccc(S(=O)(=O)F)cc2)c(Cl)c1
A: 18
